The entries below are paired with their reported Firefly, cmpd repeat 1.
# TARGET: NR2F6 (Homo sapiens)
# Construct: expressed in transfected cells; also transient transfection
# Sequence (P10588 whole entry): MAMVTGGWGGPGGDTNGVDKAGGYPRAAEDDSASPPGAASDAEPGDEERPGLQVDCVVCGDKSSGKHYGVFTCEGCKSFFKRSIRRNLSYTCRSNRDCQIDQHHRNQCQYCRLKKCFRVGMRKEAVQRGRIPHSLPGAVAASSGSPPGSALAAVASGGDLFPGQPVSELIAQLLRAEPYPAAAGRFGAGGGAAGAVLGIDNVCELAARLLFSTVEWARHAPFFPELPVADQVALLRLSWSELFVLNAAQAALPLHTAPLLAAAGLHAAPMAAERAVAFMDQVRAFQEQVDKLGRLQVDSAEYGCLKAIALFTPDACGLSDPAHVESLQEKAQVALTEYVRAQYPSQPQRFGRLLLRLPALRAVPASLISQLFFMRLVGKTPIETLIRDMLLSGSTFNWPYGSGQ
# ASSAY OVERVIEW: NR2F6 agonist screening, Firefly signal cmpd/DMSO
# Format: cell-based
# TEST PARAMETERS: raw signal, repeat 1

Cc1cc(C)nc(Sc2nnc(-c3ccc(C)c(S(=O)(=O)N4CCOCC4)c3)c3ccccc23)n1 ... 310
COc1ccc(NC(=O)c2ccc3nc(-c4ccccc4)cn3c2)c(OC)c1 [Compound P1] ... 236

Incoming: Fill blank: measured Firefly, cmpd repeat 1 of the compound CCOC(=O)c1cnc2c(C)cc(C)cc2c1NCCCN(C)C is ____.
Outgoing: 784

Incoming: Fill blank: measured Firefly, cmpd repeat 1 of the compound Cc1cc(C)n2nc(CNS(=O)(=O)c3c(F)c(F)c(F)c(F)c3F)nc2n1 is ____.
Outgoing: 526
